The entries below come with measured IC50 values attached.
System: human colon carcinoma HT29
assay_method_text: Proliferation assay (IC50) under aerobic and hypoxic conditions, HT29
Assay type: cell-based
run_parameters: Homo sapiens, HT-29, hypoxic (anaerobic chamber, <0.001% O2), 4 h drug exposure, then 6 days growth, sulforhodamine B, read-out: IC50 (μM) hypoxic
Report only the number, with the unit µM understood.

# annotated cases, reported IC50 shown
CCCN(CCC)CCNc1n[n+]([O-])c2cc3c(cc2[n+]1[O-])CCC3 [Compound 29]
2.5
[O-][n+]1nc(CCCN2CCOCC2)[n+]([O-])c2cc3c(cc21)CC(CO)C3 (centres unmarked) [Compound 141]
2.4
[O-][n+]1nc(CCCN2CCCC2)[n+]([O-])c2cc3c(cc21)CCC3 [Compound 85]
0.63
CCc1n[n+]([O-])c2cc3c(cc2[n+]1[O-])CC(CCO)C3 (centres unmarked) [Compound 162]
7.7
[O-][n+]1nc(CCCN2CCOCC2)[n+]([O-])c2cc3c(cc21)CCC3 [Compound 77]
2.8
CCN1Cc2cc3c(cc2C1)[n+]([O-])c(N)n[n+]3[O-] [Compound 250]
1.5
[O-][n+]1nc(CCCO)[n+]([O-])c2cc3c(cc21)CCC3 [Compound 71]
15
CN(C)CCNc1n[n+]([O-])c2c3c(ccc2[n+]1[O-])CCCC3 [Compound 173]
3.4
[O-][n+]1nc(CCCN2CCOCC2)[n+]([O-])c2cc3c(cc21)CCO3 [Compound 216]
8.9
CCCN(CCC)CCNc1nc2ccc3c(c2[n+]([O-])n1)CCC3 [Compound 11]
12.4

// recorded IC50 for COC1CCN(CCCNc2n[n+]([O-])c3cc4c(cc3[n+]2[O-])CCC4)CC1 [Compound 59] : 7.1

Query CC1CCCC(C)N1CCNc1n[n+]([O-])c2cc3c(cc2[n+]1[O-])CCC3 (centres unmarked) [Compound 39] yields IC50 of 2.7

# molecule [O-][n+]1nc(NCCN2CCCCC2)[n+]([O-])c2cc3c(cc21)CCC3 [Compound 37] ; its IC50 = 5.8
